# Tgt: T1, HLA-DR DRB4*0101 (human)
# T1 chain 1: not shown
# T1 chain 2: not shown
# Protocol Text: radiolabeled-peptide inhibition, purified HLA-DR
# Applied Conditions: remark: other sources report otherwise
Measurement Label: IC50 (µM)

Reference set (2 entries):
binder="ISAVVGILLVVVLGV [9019.0067]" result=3.11
binder="GMSYLEDVRLVHRDL [9019.0002]" result=2.54

A. CMQIAKGMSYLEDVR [9019.0083]
B. ILLVVVLGVVFGILI [9019.0068]
## Input # compare IC50 for A vs B ; return the one with the smaller value Let me know the label of the one you choose.
## Output A
(A: 3 µM, B: 11 µM)
